tested on: HL-60(TB) leukemia; test: NCI-60 one-dose screen, 48 h (100 = growth as untreated, 0 = no growth, -100 = all killed); conditions: 10 µM unless noted
Compounds without any hit were thinned out: in the full panel of roughly 83,000, 20% have a hit.
Give measured growth for each item. Keep answers brief.
Answer format: numeric, % implied, no suffix.

Q: For the molecule "CN1CCN(C(=O)Oc2cc3c(c4ccccc24)[C@H](CCl)CN3C(=O)c2cc3cc(OCCCN4CCC4)ccc3[nH]2)[C@@H]2CSSC[C@H]21" , report growth.
Ans: -25.8

Q: For the molecule COc1ccc(CCC2c3c(cc4c(c3OC)OCO4)CCN2C)cc1 (stereo unspecified) , report growth.
Ans: -37.5

Q: For the molecule "COc1ccc2c(c1)c(-c1cc(N)n3nc(-c4cn(C)c5ccccc45)cc3n1)cn2C" , report growth.
Ans: -33.1

Q: For the molecule "Cc1ccc2nc(-c3ccc(-c4nnc(SCC(=O)Nc5ccc(Br)cc5)o4)cc3)[nH]c2c1" , report growth.
Ans: 55.6

Q: For the molecule "O=C(NN1C(=O)/C(=C/C=C/c2ccc([N+](=O)[O-])o2)SC1=S)c1ccc(O)cc1" , report growth.
Ans: -41.8

Q: For the molecule "CN(C)CCCNC(=O)c1cc(NC(=O)c2cc(NC(=O)c3ccc(C#Cc4ccccc4)cc3)cn2C)cn1C" , report growth.
Ans: -69.6

Q: For the molecule "Nc1cc2ccccc2c(=O)n1NC(=O)c1ccc(I)cc1" , report growth.
Ans: 77

Q: For the molecule "COC(=O)c1c(C(=O)OC)c2c3ccccc3c3ccccc3n2c1C(=O)C(F)(F)F" , report growth.
Ans: 107

Q: For the molecule "CCCCC[C@@H]1C/C=C(\C)[C@@H](O)C(C)(C)C(=O)[C@@H](C)/C=C(\C)[C@@H]2C[C@H](O)C[C@](O)(CC(=O)O1)O2" , report growth.
Ans: 11.8

Q: For the molecule Oc1ccc(F)c(Nc2nc(SCCN3CCOCC3)nc3c2cnn3CC(Cl)c2ccc(Br)cc2)c1 (stereo unspecified) , report growth.
Ans: 2.22

Q: For the molecule "COc1cc(/C=C/C(=O)c2ccc(C(F)(F)F)cc2)ccc1Oc1nc(Nc2ccc(F)cc2)nc(N(C)C)n1" , report growth.
Ans: 80

====

test system: MDA-MB-468 breast; test: NCI-60 one-dose screen, 48 h (100 = growth as untreated, 0 = no growth, -100 = all killed); conditions: 10 µM unless noted
Compounds without any hit were thinned out: in the full panel of roughly 83,000, 20% have a hit.
measured property: growth (%)
Answer format: numeric, % implied, no suffix.

Q: For the molecule "O=C(CCl)NCNC(=O)CCl" , report growth.
Ans: 96.8

Q: For the molecule Cc1ccc2c(C(C[N+](=O)[O-])c3cccs3)c(-c3ccccc3)[nH]c2c1 (stereo not drawn) , report growth.
Ans: -5.47

Q: For the molecule "O=C(/C=C/c1ccc(Cl)cc1Cl)c1nc2ccccc2n1Cc1ccc(Br)cc1" , report growth.
Ans: 48.9

Q: For the molecule "Cc1c2cc(Cl)c3ccccc3c2c[n+]2ccccc12" , report growth.
Ans: -71.5

Q: For the molecule "O=c1[nH]c(=O)[nH]c(=O)[nH]1" , report growth.
Ans: 146

Q: For the molecule "NCCc1cc(O)c(O)cc1O" , report growth.
Ans: 96.2

Q: For the molecule "CC/C(=C/c1ccc(OC)cc1)[N+](=O)[O-]" , report growth.
Ans: -56.6

Q: For the molecule "Nc1cccnc1" , report growth.
Ans: 130
